molecular target: GDP-bound KRAS wild-type protein (Homo sapiens, UniProt P01116); assay: Binding to KRAS by surface plasmon resonance (SPR), Single Cycle Kinetics; details: SPR, Single Cycle Kinetics, GDP-bound KRAS wild-type protein; read-out: KRAS KD
Sequence (P01116 whole entry): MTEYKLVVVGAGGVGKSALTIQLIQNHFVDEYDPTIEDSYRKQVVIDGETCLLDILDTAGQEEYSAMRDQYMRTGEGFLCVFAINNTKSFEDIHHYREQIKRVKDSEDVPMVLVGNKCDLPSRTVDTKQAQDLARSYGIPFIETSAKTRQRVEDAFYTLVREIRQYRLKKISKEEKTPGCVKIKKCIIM
Metric name: Kd (nM)
Use nM as the unit, but write only the number.

CCOC[C@H]1C(=O)N[C@@H]([C@@H](C)CC)C(=O)N(C)CC(=O)N(C)[C@H]2C/C=C\CCN(C2=O)[C@@H](Cc2ccc(C(F)(F)F)cc2)C(=O)N(C)CC(=O)N[C@@H](CCc2ccc(C(F)(F)F)c(OC)c2)C(=O)N2C[C@H](OCC)C[C@H]2C(=O)NC2(CC(C)(C)C2)C(=O)N(C)[C@@H](C2CCCC2)C(=O)N(C)[C@H](C(=O)N(C)CC)CC(=O)N1C [PP2014] | 0.093

Field: next compound
Bench note, GDP-bound KRAS wild-type protein (Homo sapiens, UniProt P01116): entry CCO[C@@H]1C[C@H]2C(=O)NC3(CC(C)(C)C3)C(=O)N(C)[C@@H](C3CCCC3)C(=O)N(C)[C@H](C(=O)N(C)CC)CC(=O)N(C)[C@@H](CC(F)F)C(=O)N[C@@H]([C@@H](C)CC)C(=O)N(C)CC(=O)N(C)[C@H]3C/C=C\CCN(C3=O)[C@@H](Cc3ccc(C(F)(F)F)cc3)C(=O)N(C)CC(=O)N[C@@H](CCc3cc(F)c(C(F)(F)F)c(F)c3)C(=O)N2C1 [PP1643] , its Kd = 0.055

====

target: UniProt:P01116; test: Binding to KRAS by surface plasmon resonance (SPR), Single Cycle Kinetics; conditions: SPR Single Cycle Kinetics, GDP-bound KRAS wild-type protein, 1:1 binding model; read-out: KRAS KD
*1 amine or outer side, *2 acyl side, *3 side chain or, on linkers, in order; H or OH if unused. Where a SMILES comes first, the peptide text is derived from it. Bridges are numbered along the chain shown (N, C = ends). [ ]: non-standard residue; d: D form. The star is where a group is joined. hPhe(3-Cl-4-CF3) = N[C@@H](CCc1ccc(C(F)(F)F)c(Cl)c1)C(=O)O; X17 = CCCCN([C@@H](Cc1ccc(C(F)(F)F)cc1)C(=O)[*:2])[*:1]; NPrPhe(4-CF3) = CCCN[C@@H](Cc1ccc(C(F)(F)F)cc1)C(=O)O; NMeGly(cPent) = CN[C@H](C(=O)O)C1CCCC1; Pro(4,4-F2) = O=C(O)[C@@H]1CC(F)(F)CN1; NEtLeu = CCN[C@@H](CC(C)C)C(=O)O; NMeD = CN[C@@H](CC(=O)O)C(=O)O; NMeL = CN[C@@H](CC(C)C)C(=O)O; Morpholide = C1CN(*)CCO1; NMeA = CN[C@@H](C)C(=O)O; Ac5c = NC1(C(=O)O)CCCC1; Aze = O=C(O)[C@@H]1CCN1; Ac4c = NC1(C(=O)O)CCC1; Aib = CC(C)(N)C(=O)O; Sar = CNCC(=O)O
Metric name: Kd (nM)
Please state the figure in nM; there is no need to write the unit.

CCC[C@H]1C(=O)N[C@@H]([C@@H](C)CC)C(=O)N(C)CC(=O)N(C)[C@H]2C/C=C\CCN(C2=O)[C@@H](Cc2ccc(C)cc2)C(=O)N(C)CC(=O)N[C@@H](CCc2ccc3sc(C)c(C)c3c2)C(=O)N2C[C@H](OCC)C[C@H]2C(=O)NC2(CC(C)(C)C2)C(=O)N(C)[C@@H](C(CC)CC)C(=O)N(C)[C@H](C(=O)N(C)C)CC(=O)N1C [PP2902] | 0.71
CCCCN1C(=O)[C@@H]2CCN2C(=O)[C@H](C)N(C)C(=O)[C@H]([C@@H](C)CC)NC(=O)[C@H](CC(C)C)N(C)C(=O)C[C@@H](C(=O)N2CCOCC2)N(C)C(=O)[C@H](C2CCCC2)N(C)C(=O)C2(CCCC2)NC(=O)[C@@H]2CCCN2C(=O)[C@H](CCc2ccc(C(F)(F)F)c(Cl)c2)NC(=O)CN(C)C(=O)[C@@H]1Cc1ccc(C(F)(F)F)cc1 [PP0106] ([NMeL]I[NMeA][Aze][X17][Sar][hPhe(3-Cl-4-CF3)]P[Ac5c][NMeGly(cPent)][NMeD]-Morpholide; lactam N-11) | 0.19
CCCN1C(=O)[C@@H]2CCN2C(=O)CN(C)C(=O)[C@H]([C@@H](C)CC)NC(=O)[C@H](CC(C)C)N(C)C(=O)C[C@@H](C(=O)N(C)C)NC(=O)[C@H](C2CCCC2)N(C)C(=O)C2(CCCC2)NC(=O)[C@@H]2CC(F)(F)CN2C(=O)[C@H](CCc2ccc(C(F)(F)F)c(Cl)c2)NC(=O)CN(C)C(=O)[C@@H]1Cc1ccc(C(F)(F)F)cc1 [PP0387] ([NMeL]I[Sar][Aze][NPrPhe(4-CF3)][Sar][hPhe(3-Cl-4-CF3)][Pro(4,4-F2)][Ac5c][NMeGly(cPent)]D-NMe2; lactam N-11) | 0.54
CCCN1C(=O)CN(C)C(=O)CN(C)C(=O)[C@H]([C@@H](C)CC)NC(=O)[C@H](CC(C)C)N(C)C(=O)C[C@@H](C(=O)N(C)C)NC(=O)[C@H](C2CCCC2)N(C)C(=O)C2(CCC2)NC(=O)[C@@H]2CC(F)(F)CN2C(=O)[C@H](CCc2ccc(C(F)(F)F)c(Cl)c2)NC(=O)CN(C)C(=O)[C@@H]1Cc1ccc(C(F)(F)F)cc1 [PP0358] ([NMeL]I[Sar][Sar][NPrPhe(4-CF3)][Sar][hPhe(3-Cl-4-CF3)][Pro(4,4-F2)][Ac4c][NMeGly(cPent)]D-NMe2; lactam N-11) | 0.33
CCO[C@@H]1C[C@H]2C(=O)NC3(CCCC3)C(=O)N(C)[C@@H](C3CCCC3)C(=O)N(C)[C@H](C(=O)N(C)C)CC(=O)N(C)[C@@H](CC(C)C)C(=O)N[C@@H]([C@@H](C)CC)C(=O)N(C)CC(=O)N(C)[C@H]3C/C=C\CCN(C3=O)[C@@H](Cc3ccc(C(F)(F)F)cc3)C(=O)N(C)CC(=O)N[C@@H](CCc3ccc(Cl)c(Cl)c3)C(=O)N2C1 [PP2837] | 0.21

Value of measured Kd for the entry CCCN1C(=O)CN(C)C(=O)CN(C)C(=O)[C@H]([C@@H](C)CC)NC(=O)[C@H](CC(C)C)N(C)C(=O)C[C@@H](C(=O)N2CCOCC2)N(C)C(=O)[C@H](C2CCCC2)N(C)C(=O)C(C)(C)NC(=O)[C@@H]2CCCN2C(=O)[C@H](CCc2ccc(C(F)(F)F)c(Cl)c2)NC(=O)CN(C)C(=O)[C@@H]1Cc1ccc(C(F)(F)F)cc1 [PP0230] ([NMeL]I[Sar][Sar][NPrPhe(4-CF3)][Sar][hPhe(3-Cl-4-CF3)]P[Aib][NMeGly(cPent)][NMeD]-Morpholide; lactam N-11) : 0.39

The compound listed as CC[C@H](C)[C@@H]1NC(=O)[C@H](CC(C)C)N(C)C(=O)C[C@@H](C(=O)N2CCOCC2)N(C)C(=O)[C@H](C2CCCC2)N(C)C(=O)C2(CCOCC2)NC(=O)[C@@H]2CCCN2C(=O)[C@H](CCc2cc(F)c(C(F)(F)F)c(F)c2)NC(=O)CN(C)C(=O)[C@H](Cc2ccc(C(F)(F)F)cc2)N2CCCC[C@@H](C2=O)N(C)C(=O)CN(C)C1=O [PP0564] has a reported Kd of 0.18

For this compound ( CCC[C@H]1C(=O)N[C@H]([C@@H](C)CC)C(=O)N2C[C@@H](OC)C[C@H]2C(=O)N(C)[C@H]2C/C=C\CCN(C2=O)[C@@H](Cc2ccc(C)cc2)C(=O)N(C)CC(=O)N[C@@H](CCc2ccc(C(F)(F)F)c(Cl)c2)C(=O)N2C[C@H](OCC)C[C@H]2C(=O)NC2(CCC2)C(=O)N(C)[C@@H](C2CCCC2)C(=O)N(C)[C@H](C(=O)N(C)C)CC(=O)N1C (stereo in doubt) [PP2552] ), measured Kd is 0.28

get_value(item= CCCN1C(=O)[C@@H]2CCN2C(=O)[C@H](C)N(C)C(=O)[C@H]([C@@H](C)CC)NC(=O)[C@H](CC(C)C)N(CC)C(=O)C[C@@H](C(=O)N2CCOCC2)N(C)C(=O)[C@H](C2CCCC2)N(C)C(=O)C2(CCCC2)NC(=O)[C@@H]2CCCN2C(=O)[C@H](CCc2ccc(C(F)(F)F)c(Cl)c2)NC(=O)CN(C)C(=O)[C@@H]1Cc1ccc(C(F)(F)F)cc1 [PP0151] ([NEtLeu]I[NMeA][Aze][NPrPhe(4-CF3)][Sar][hPhe(3-Cl-4-CF3)]P[Ac5c][NMeGly(cPent)][NMeD]-Morpholide; lactam N-11) , readout=Kd) returns 0.5

These entries and their values trace back to patent US20240158446A1.
